EXPERIMENTAL_TARGET: T1, biotinylated nerve growth factor (NGF) (Homo sapiens, UniProt P01138, biotin (biotinylated in-house, sites not stated))
T1 construct: nerve growth factor (NGF), human; R&D Systems 256-GF; also called human nerve growth factor; source: bought: R&D Systems (256-GF), biotinylated in-house
T1 sequence (P01138 122-241): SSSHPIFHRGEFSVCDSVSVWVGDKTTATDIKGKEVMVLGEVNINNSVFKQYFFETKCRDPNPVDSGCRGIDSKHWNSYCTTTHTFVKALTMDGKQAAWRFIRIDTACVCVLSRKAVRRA
ASSAY_TEXT: AlphaScreen or HTRF; epitope competition assay: biotinylated NGF (detected by streptavidin Europium cryptate) and DyLight650-labelled IgGWFL with increasing concentrations of test IgG; relative affinity
CONDITION_PARAMETERS: both partners purified

{"columns": ["BINDER", "binding result"],
 "data": [
  ["evolved scFvWFL variant 72 reformatted as IgG1 (antibody, V domains shown, human IgG1 heavy chain constant region of the TM-YTE IgG1 expression vector; human light chain constant region of the expression vector; IgG1, TM-YTE backbone; selected by the TPBLA from an error-prone PCR library of scFvWFL; source: HEK293/EBNA, co-transfected, purified from the culture medium (Protein A)) VH: QVQLVQSGAEVKKPGSSVKVSCKASGGTSWFGAFTWVRQAPGQGLEWMGGTIPIFGLTNLAQNFQGRVTITADESTSTVYMELSSLRSDDTAVYYCARSSRIYDLNPSLTAYYDMGVWGQGTMVTVSS VL: QSVLTQPPSVSAAPGQKVTISCSGSSSDIGDNYVSWYQQLPGTAPKLLIYDNNKRPSGIPDRFSGSKSGTSATLGITGLQTGDEADYYCGTWDSSLSAWVFGGGTKLTVL", "binds"],
  ["evolved scFvWFL variant 130 reformatted as IgG1 (antibody, V domains shown, human IgG1 heavy chain constant region of the TM-YTE IgG1 expression vector; human light chain constant region of the expression vector; IgG1, TM-YTE backbone; selected by the TPBLA from an error-prone PCR library of scFvWFL; source: HEK293/EBNA, co-transfected, purified from the culture medium (Protein A)) VH: QVQLVQSGAEVKKPGSSVKVSCKASGGAFWFGAFTWVRQAPGQGLEWMGGITPIFGHTNLAQNFQGRVTITADESTSTVYMELSSLRSEDTAVYYCARSSRIYDLNPSLTAYYDMDVWGQGTMVTVSS VL: QSVLTQPPSVSAAPGQKVTISCSGSSSDIGNNYVSWYQQLPGTAPKLLIYDNNKRPSGIPDRFSGSKSGTSATLGITGLQTGDEADYYCGTWDSSLSAWVFGGGTKLTVL", "binds"],
  ["evolved scFvWFL variant 176 reformatted as IgG1 (antibody, V domains shown, human IgG1 heavy chain constant region of the TM-YTE IgG1 expression vector; human light chain constant region of the expression vector; IgG1, TM-YTE backbone; selected by the TPBLA from an error-prone PCR library of scFvWFL; source: HEK293/EBNA, co-transfected, purified from the culture medium (Protein A)) VH: QVQLVRSGAEVKKPGSSVKVSCKASGGTFWFGAFTWVRQAPGQGLEWMGGIIPIFGLTNLAQNFQGRVTITADESTSTVYMELSSLRSEDTAVYYCARSSRIYDLNPSLTAYYDMDVWGQGTMVTVSS VL: QSVLTQPPSVSAAPGQKVTISCSGSSSDIGNNYVSWYQQLPGTAPKLLIYDNNKRPSGIPDRFSGSKSGTSATLGITGLQTGDEADYYCGTWDSSLSAWVFGGGTKLTVL", "binds"]
]}

Attribution: paper PMC7156504
